Taken from paper PMC4805166.

# System: E. amylovora, P. syringae pv. syringae, X. axonopodis pv. vesicatoria and F. oxysporum
# Type: cell-based
# Condition label: authors' overall judgement over the pathogens tested
Where a SMILES comes first, the peptide text is derived from it. [ ]: non-standard residue; d: D form. The star is where a group is joined. Pentanoyl(4-Me) = CC(C)CCC(=O)*; Hexanoyl = CCCCCC(=O)*

Compound	Antimicrobial activity, in words
CCCCCC(=O)NCCCC[C@H]1NC(=O)[C@H](CCCCN)NC(=O)[C@H](CC(C)C)NC(=O)[C@H](CCCCN)NC(=O)[C@H](CCCCN)NC(=O)[C@H](CCC(N)=O)NC(=O)[C@H](CC(C)C)NC(=O)[C@H](CCCCN)NC(=O)[C@H](CCCCN)NC(=O)[C@@H](Cc2ccccc2)NC1=O [BPC632, c(KKLKk(CO-nC5H11)fKKLQ)] (cyclo(KKLK[dK](Hexanoyl)[dF]KKLQ))	low active
CC(C)CCC(=O)NCCCC[C@H]1NC(=O)[C@H](CCCCN)NC(=O)[C@H](CC(C)C)NC(=O)[C@H](CCCCN)NC(=O)[C@H](CCCCN)NC(=O)[C@H](CCC(N)=O)NC(=O)[C@H](CC(C)C)NC(=O)[C@H](CCCCN)NC(=O)[C@H](CCCCN)NC(=O)[C@@H](Cc2ccccc2)NC1=O [BPC634, c(KKLKk(CO-isoC5H11)fKKLQ)] (cyclo(KKLK[dK](Pentanoyl(4-Me))[dF]KKLQ))	low active

====

Listed below: MIC Pss values for each entry.
# Tested on: Pseudomonas syringae pv. syringae EPS94
# Format: cell-based
# Condition label: 48 h
Where a SMILES comes first, the peptide text is derived from it. [ ]: non-standard residue; d: D form. The star is where a group is joined. Hexanoyl = CCCCCC(=O)*; Butyryl = CCCC(=O)*

Compound	MIC Pss
CCCCCC(=O)NCCCC[C@@H]1NC(=O)[C@H](CCCCN)NC(=O)[C@H](CCC(N)=O)NC(=O)[C@H](CC(C)C)NC(=O)[C@H](CCCCN)NC(=O)[C@H](CCCCN)NC(=O)[C@@H](Cc2ccccc2)NC(=O)[C@H](CCCCN)NC(=O)[C@H](CCCCN)NC(=O)[C@H](CC(C)C)NC1=O [BPC680, c(KK(CO-nC5H11)LKKfKKLQ)] (cyclo(KK(Hexanoyl)LKK[dF]KKLQ))	25 to 50 µM

Now turn to the next compound.
For the compound CCCC(=O)NCCCC[C@@H]1NC(=O)[C@H](CCC(N)=O)NC(=O)[C@H](CC(C)C)NC(=O)[C@H](CCCCN)NC(=O)[C@H](CCCCN)NC(=O)[C@H](Cc2c[nH]cn2)NC(=O)[C@H](CCCCN)NC(=O)[C@H](CCCCN)NC(=O)[C@H](CC(C)C)NC(=O)[C@H](CCCCN)NC1=O [BPC722] (cyclo(HKKLQK(Butyryl)KLKK)) , report MIC Pss.
>50 µM

====

# System: Erwinia amylovora PMV6076
# Method summary: MIC, in vitro growth inhibition
# Format: cell-based
# Condition label: TSB, 25°C, 48 h, OD 600 nm; tested at 3.1, 6.2, 12.5, 25, 50 μM; three replicates, experiment repeated twice; MIC = lowest concentration with no growth
Where a SMILES comes first, the peptide text is derived from it. [ ]: non-standard residue; d: D form. The star is where a group is joined. Hexanoyl = CCCCCC(=O)*
Measured metric: MIC Ea

Molecule	Target	MIC Ea
CCCCCC(=O)NCCCC[C@@H]1NC(=O)[C@H](CCC(N)=O)NC(=O)[C@H](CC(C)C)NC(=O)[C@H](CCCCN)NC(=O)[C@H](CCCCN)NC(=O)[C@@H](Cc2ccccc2)NC(=O)[C@H](CCCCN)NC(=O)[C@H](CCCCN)NC(=O)[C@H](CC(C)C)NC(=O)[C@H](CCCCN)NC1=O [BPC686, c(K(CO-nC5H11)KLKKfKKLQ)] (cyclo(K(Hexanoyl)KLKK[dF]KKLQ))	Erwinia amylovora PMV6076	25 to 50 µM

Now turn to the next molecule.
For the molecule CCCCCC(=O)NCCCC[C@H]1NC(=O)[C@H](CCCCN)NC(=O)[C@H](CCC(N)=O)NC(=O)[C@H](CC(C)C)NC(=O)[C@H](CCCCN)NC(=O)[C@H](CCCCN)NC(=O)[C@H](Cc2ccccc2)NC(=O)[C@H](CCCCN)NC(=O)[C@H](CCCCN)NC(=O)[C@H](CC(C)C)NC1=O [BPC678] (cyclo(FKKLQK[dK](Hexanoyl)LKK)) , report MIC Ea.
25 to 50 µM

====

# Test system: Pseudomonas syringae pv. syringae EPS94
# Type: cell-based
# Condition label: 48 h
Where a SMILES comes first, the peptide text is derived from it. Side-chain parts run from the residue outwards. [ ]: non-standard residue; d: D form. The star is where a group is joined. Pentanoyl(4-Me) = CC(C)CCC(=O)*; Hexanoyl = CCCCCC(=O)*; Butyryl = CCCC(=O)*
Measured metric: MIC Pss

# count of solved cases: 5
Molecule	Target	Result
CCCC(=O)N[C@@H](CCCCN)C(=O)N[C@@H](CC(C)C)C(=O)NCCCC[C@@H]1NC(=O)[C@H](CCCCN)NC(=O)[C@H](CC(C)C)NC(=O)[C@H](CCCCN)NC(=O)[C@H](CCCCN)NC(=O)[C@H](CCC(N)=O)NC(=O)[C@H](CC(C)C)NC(=O)[C@H](CCCCN)NC(=O)[C@H](CCCCN)NC(=O)[C@@H](Cc2ccccc2)NC1=O [BPC726, c(KKLKK(LK-CO-C3H7)fKKLQ)] (cyclo(KKLKK([Leu-Lys-Butyryl])[dF]KKLQ))	Pseudomonas syringae pv. syringae EPS94	12.5 to 25 µM
CC(C)CCC(=O)NCCCC[C@H]1NC(=O)[C@H](CCCCN)NC(=O)[C@H](CC(C)C)NC(=O)[C@H](CCCCN)NC(=O)[C@H](CCCCN)NC(=O)[C@H](CCC(N)=O)NC(=O)[C@H](CC(C)C)NC(=O)[C@H](CCCCN)NC(=O)[C@H](CCCCN)NC(=O)[C@H](Cc2ccccc2)NC1=O [BPC630, c(KKLKk(CO-isoC5H11)FKKLQ)] (cyclo(FKKLQKKLK[dK](Pentanoyl(4-Me))))	Pseudomonas syringae pv. syringae EPS94	6.2 to 12.5 µM
CC(C)CCC(=O)NCCCC[C@@H]1NC(=O)[C@H](CCCCN)NC(=O)[C@H](CC(C)C)NC(=O)[C@H](CCCCN)NC(=O)[C@H](CCCCN)NC(=O)[C@H](CCC(N)=O)NC(=O)[C@H](CC(C)C)NC(=O)[C@H](CCCCN)NC(=O)[C@H](CCCCN)NC(=O)[C@@H](Cc2ccccc2)NC1=O [BPC626, c(KKLKK(CO-isoC5H11)fKKLQ)] (cyclo(KKLKK(Pentanoyl(4-Me))[dF]KKLQ))	Pseudomonas syringae pv. syringae EPS94	12.5 to 25 µM
CCCC(=O)NCCCC[C@@H]1NC(=O)[C@H](CCCCN)NC(=O)[C@H](CCC(N)=O)NC(=O)[C@H](CC(C)C)NC(=O)[C@H](CCCCN)NC(=O)[C@H](CCCCN)NC(=O)[C@H](Cc2c[nH]cn2)NC(=O)[C@H](CCCCN)NC(=O)[C@H](CCCCN)NC(=O)[C@H](CC(C)C)NC1=O [BPC720] (cyclo(HKKLQKK(Butyryl)LKK))	Pseudomonas syringae pv. syringae EPS94	12.5 to 25 µM
CCCC(=O)NCCCC[C@H]1NC(=O)[C@H](CCCCN)NC(=O)[C@H](CCC(N)=O)NC(=O)[C@H](CC(C)C)NC(=O)[C@H](CCCCN)NC(=O)[C@H](CCCCN)NC(=O)[C@H](Cc2ccccc2)NC(=O)[C@H](CCCCN)NC(=O)[C@H](CCCCN)NC(=O)[C@H](CC(C)C)NC1=O [BPC704] (cyclo(FKKLQK[dK](Butyryl)LKK))	Pseudomonas syringae pv. syringae EPS94	6.2 to 12.5 µM

Now turn to the next molecule.
Lab note: record MIC Pss of CCCCCC(=O)NCCCC[C@@H]1NC(=O)[C@H](CCCCN)NC(=O)[C@H](CC(C)C)NC(=O)[C@H](CCCCN)NC(=O)[C@H](CCCCN)NC(=O)[C@H](CCC(N)=O)NC(=O)[C@H](CC(C)C)NC(=O)[C@H](CCCCN)NC(=O)[C@H](CCCCN)NC(=O)[C@@H](Cc2ccccc2)NC1=O [BPC624, c(KKLKK(CO-nC5H11)fKKLQ)] (cyclo(KKLKK(Hexanoyl)[dF]KKLQ)) tested on Pseudomonas syringae pv. syringae EPS94.
12.5 to 25 µM

====

# System: erythrocyte suspensions of horse blood;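 further: Read-out is hemoglobin release into the supernatant, with a buffer-only blank subtracted as the 0% baseline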
# Condition label: 150 µM peptide; horse erythrocytes 5% vol/vol, TRIS buffer pH 7.2, 1 h at 37°C, absorbance 540 nm; relative to melittin 100 μM; ± confidence interval (α = 0.05)
Where a SMILES comes first, the peptide text is derived from it. [ ]: non-standard residue; d: D form. The star is where a group is joined. Pentanoyl(4-Me) = CC(C)CCC(=O)*; Hexanoyl = CCCCCC(=O)*
Hemolysis (%) 150 µM vs 8%: less than gives true (1); not less than gives false (0).

Previously resolved entries follow.
Compound	Answer label
CCCCCC(=O)NCCCC[C@@H]1NC(=O)[C@H](CCCCN)NC(=O)[C@H](CC(C)C)NC(=O)[C@H](CCCCN)NC(=O)[C@H](CCCCN)NC(=O)[C@H](CCC(N)=O)NC(=O)[C@H](CC(C)C)NC(=O)[C@H](CCCCN)NC(=O)[C@H](CCCCN)NC(=O)[C@H](Cc2c[nH]cn2)NC1=O [BPC636, c(KKLKK(CO-nC5H11)HKKLQ)] (cyclo(HKKLQKKLKK(Hexanoyl)))	true (1)
CCCCCC(=O)NCCCC[C@@H]1NC(=O)[C@H](CCCCN)NC(=O)[C@H](CCC(N)=O)NC(=O)[C@H](CC(C)C)NC(=O)[C@H](CCCCN)NC(=O)[C@H](CCCCN)NC(=O)[C@@H](Cc2ccccc2)NC(=O)[C@H](CCCCN)NC(=O)[C@H](CCCCN)NC(=O)[C@H](CC(C)C)NC1=O [BPC680, c(KK(CO-nC5H11)LKKfKKLQ)] (cyclo(KK(Hexanoyl)LKK[dF]KKLQ))	false (0)

is_below(Hemolysis (%) 150 µM, 8%) for CC(C)CCC(=O)NCCCC[C@H]1NC(=O)[C@H](CCCCN)NC(=O)[C@H](CC(C)C)NC(=O)[C@H](CCCCN)NC(=O)[C@H](CCCCN)NC(=O)[C@H](CCC(N)=O)NC(=O)[C@H](CC(C)C)NC(=O)[C@H](CCCCN)NC(=O)[C@H](CCCCN)NC(=O)[C@@H](Cc2ccccc2)NC1=O [BPC634, c(KKLKk(CO-isoC5H11)fKKLQ)] (cyclo(KKLK[dK](Pentanoyl(4-Me))[dF]KKLQ)) ?
true (1)

is_below(Hemolysis (%) 150 µM, 8%) for CCCCCC(=O)NCCCC[C@H]1NC(=O)[C@H](CCCCN)NC(=O)[C@H](CC(C)C)NC(=O)[C@H](CCCCN)NC(=O)[C@H](CCCCN)NC(=O)[C@H](CCC(N)=O)NC(=O)[C@H](CC(C)C)NC(=O)[C@H](CCCCN)NC(=O)[C@H](CCCCN)NC(=O)[C@H](Cc2ccccc2)NC1=O [BPC628, c(KKLKk(CO-nC5H11)FKKLQ)] (cyclo(FKKLQKKLK[dK](Hexanoyl))) ?
false (0)
